Each recorded value in this set is attributed to patent US12371459B2.

- experiment_description: Cytotoxicity in normal cell line (MTT)
- experimental_parameters: human, HaCaT keratinocyte cells
Ends that are not written are not given here.
experimental_endpoint: viability at 24 h, 25 µM (%)
Reply with just the number (in %).

The following substances have reported results that may help.
{"substance": "WLNALKKVFQGIHEAIKLINNHVQ-NH2 [Pse-Anal1]", "quantitative_readout": 15.9}
{"substance": "GLNALKKVFQGIHEAIKKINNHVQ-NH2 [Pse-18L-K]", "quantitative_readout": 100}
{"substance": "LNALKKVFQGIHEAIKKI-NH2 [Pse-T3]", "quantitative_readout": 100}
{"substance": "GLNALKKVSQGIHEAIKLINNHVQ-NH2 [Pse-Anal5]", "quantitative_readout": 100}
{"substance": "LNALKKVFQGIHEAIKLI-NH2 [Pse-T1]", "quantitative_readout": 100}

Now consider the entry below.
Kindly note the recorded viability at 24 h, 25 µM for GLNALKKVFQGIHEAIKLINNHVQ-NH2 [Pseudin-2] , which is 100

---

- experiment_description: Cytotoxicity in normal cell line (MTT)
- experimental_parameters: human, HaCaT keratinocyte cells
Ends that are not written are not given here.
# key: entry, value: viability at 24 h, 100 µM

The following substances have reported results that may help.
{"substance": "GLNALKKVFQGIHEAIKKINNHVQ-NH2 [Pse-18L-K]", "viability at 24 h, 100 µM": "81.5%"}
{"substance": "LNALKKVFQGIHEAIKKI-NH2 [Pse-T3]", "viability at 24 h, 100 µM": "90.3%"}
{"substance": "GLNALKKVFQGIHEAIKLINNHVQ-NH2 [Pseudin-2]", "viability at 24 h, 100 µM": "82.1%"}
{"substance": "GLNALKKVSQGIHEAIKLINNHVQ-NH2 [Pse-Anal5]", "viability at 24 h, 100 µM": "83.5%"}
{"substance": "LNALKKVFQGIHEAIKLI-NH2 [Pse-T1]", "viability at 24 h, 100 µM": "86.2%"}

Now consider the entry below.
Kindly note the recorded viability at 24 h, 100 µM for WLNALKKVFQGIHEAIKLINNHVQ-NH2 [Pse-Anal1] , which is 1.8%

---

- Test system: Bacillus subtilis KCTC 1998
- experimental_parameters: KCTC 1998, 18 h
Ends that are not written are not given here.
experimental_endpoint: Minimal inhibitory concentration (µM)
Reply with just the number (in µM).

The following substances have reported results that may help.
{"substance": "ALNALKKVSQGIHEAIKLIANHVQ-NH2 [Pse-Anal7]", "quantitative_readout": 16}
{"substance": "WLNALKKVWQGIHEAIKLIWNWVQ-NH2 [Pse-Anal4]", "quantitative_readout": 32}
{"substance": "WLNALKKVFQGIHEAIKLIWNWVQ-NH2 [Pse-Anal3]", "quantitative_readout": 32}
{"substance": "WLNALKKVFQGIHEAIKLIWNHVQ-NH2 [Pse-Anal2]", "quantitative_readout": 4}

Now consider the entry below.
Kindly note the recorded Minimal inhibitory concentration for GLNALKKVSQGIHESIKLINNHVQ-NH2 [Pse-Anal6] , which is 32

---

- System: erythrocytes of a mouse (Balb/c)
- experiment_description: Erythrocyte hemolytic activity
- experimental_parameters: peptide concentration 3.13 μM, 1 hour at 37° C.
Ends that are not written are not given here.
experimental_endpoint: Erythrocyte disrupting ability (%)
Reply with just the number (in %).

erythrocytes of a mouse (Balb/c) data for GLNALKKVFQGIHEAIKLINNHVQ-NH2 [Pseudin-2] ; its Erythrocyte disrupting ability: 0

erythrocytes of a mouse (Balb/c) data for GLNALKKVSQGIHEAIKLINNHVQ-NH2 [Pse-Anal5] ; its Erythrocyte disrupting ability: 0

erythrocytes of a mouse (Balb/c) data for GLNALKKVFQGIHEAIKKINNHVQ-NH2 [Pse-18L-K] ; its Erythrocyte disrupting ability: 2.4

erythrocytes of a mouse (Balb/c) data for WLNALKKVFQGIHEAIKLINNHVQ-NH2 [Pse-Anal1] ; its Erythrocyte disrupting ability: 50.9

erythrocytes of a mouse (Balb/c) data for LNALKKVFQGIHEAIKKI-NH2 [Pse-T3] ; its Erythrocyte disrupting ability: 0

erythrocytes of a mouse (Balb/c) data for LNALKKVFQGIHEAIKLI-NH2 [Pse-T1] ; its Erythrocyte disrupting ability: 0

---

- System: erythrocytes of a mouse (Balb/c)
- experiment_description: Erythrocyte hemolytic activity
- experimental_parameters: peptide concentration 6.25 μM, 1 hour at 37° C.
Ends that are not written are not given here.
# key: entry, value: Erythrocyte disrupting ability

{"substance": "GLNALKKVSQGIHEAIKLINNHVQ-NH2 [Pse-Anal5]", "system": "erythrocytes of a mouse (Balb/c)", "experimental_endpoint": "Erythrocyte disrupting ability", "result": "0.7%"}
{"substance": "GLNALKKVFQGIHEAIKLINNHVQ-NH2 [Pseudin-2]", "system": "erythrocytes of a mouse (Balb/c)", "experimental_endpoint": "Erythrocyte disrupting ability", "result": "0%"}
{"substance": "WLNALKKVFQGIHEAIKLINNHVQ-NH2 [Pse-Anal1]", "system": "erythrocytes of a mouse (Balb/c)", "experimental_endpoint": "Erythrocyte disrupting ability", "result": "58.6%"}
{"substance": "LNALKKVFQGIHEAIKLI-NH2 [Pse-T1]", "system": "erythrocytes of a mouse (Balb/c)", "experimental_endpoint": "Erythrocyte disrupting ability", "result": "0%"}
{"substance": "LNALKKVFQGIHEAIKKI-NH2 [Pse-T3]", "system": "erythrocytes of a mouse (Balb/c)", "experimental_endpoint": "Erythrocyte disrupting ability", "result": "0%"}

Now consider the entry below.
Kindly note the recorded Erythrocyte disrupting ability for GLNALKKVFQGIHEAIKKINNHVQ-NH2 [Pse-18L-K] , which is 3.4%

---

- experiment_description: in vitro
- experimental_parameters: human, HaCaT keratinocyte cells, Cell survival ability
- Description: To determine the cytotoxicity of the peptides produced by the method of Example 1 in normal cell line, cytotoxicity was measured by using human keratinocyte cell line (HaCaT cell line, Dr. N E. Fusenig, Heidelberg, Germany). Specifically, HaCaT cells, which have been cultured in DMEM medium containing 10% FBS (fetal bovine serum), were aliquoted in a microtiter plate to have 2×10^5 cells per well. […]
Ends that are not written are not given here.
experimental_endpoint: viability at 24 h, 25 µM
Kindly format the answer as number then unit.

The following substances have reported results that may help.
{"substance": "ALNALKKVSQGIHEAIKLIANHVQ-NH2 [Pse-Anal7]", "result": "100%"}
{"substance": "GLNALKKVSQGIHESIKLINNHVQ-NH2 [Pse-Anal6]", "result": "100%"}
{"substance": "WLNALKKVFQGIHEAIKLIWNHVQ-NH2 [Pse-Anal2]", "result": "18.8%"}
{"substance": "WLNALKKVWQGIHEAIKLIWNWVQ-NH2 [Pse-Anal4]", "result": "20.8%"}

Kindly note the recorded viability at 24 h, 25 µM for WLNALKKVFQGIHEAIKLIWNWVQ-NH2 [Pse-Anal3] , which is 24.1%

---

# key: entry, value: viability at 24 h, 3.13 µM
- experiment_description: in vitro
- experimental_parameters: human, HaCaT keratinocyte cells, Cell survival ability
Ends that are not written are not given here.
Reply with just the number (in %).

Kindly note the recorded viability at 24 h, 3.13 µM for GLNALKKVSQGIHESIKLINNHVQ-NH2 [Pse-Anal6] , which is 100

Kindly note the recorded viability at 24 h, 3.13 µM for WLNALKKVWQGIHEAIKLIWNWVQ-NH2 [Pse-Anal4] , which is 46.1

---

- experiment_description: Cytotoxicity in normal cell line (MTT)
- experimental_parameters: human, HaCaT keratinocyte cells
Ends that are not written are not given here.
# key: entry, value: viability at 24 h, 3.13 µM
Reply with just the number (in %).

Kindly note the recorded viability at 24 h, 3.13 µM for LNALKKVFQGIHEAIKKI-NH2 [Pse-T3] , which is 100

Kindly note the recorded viability at 24 h, 3.13 µM for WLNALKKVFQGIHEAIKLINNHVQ-NH2 [Pse-Anal1] , which is 80.1

Kindly note the recorded viability at 24 h, 3.13 µM for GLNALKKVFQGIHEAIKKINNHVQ-NH2 [Pse-18L-K] , which is 100

Kindly note the recorded viability at 24 h, 3.13 µM for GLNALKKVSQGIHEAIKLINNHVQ-NH2 [Pse-Anal5] , which is 100

Kindly note the recorded viability at 24 h, 3.13 µM for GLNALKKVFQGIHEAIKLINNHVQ-NH2 [Pseudin-2] , which is 100

Kindly note the recorded viability at 24 h, 3.13 µM for LNALKKVFQGIHEAIKLI-NH2 [Pse-T1] , which is 100

---

- experiment_description: in vitro
- experimental_parameters: human, HaCaT keratinocyte cells, Cell survival ability
Ends that are not written are not given here.
experimental_endpoint: viability at 24 h, 50 µM

The following substances have reported results that may help.
{"substance": "WLNALKKVFQGIHEAIKLIWNWVQ-NH2 [Pse-Anal3]", "experimental_endpoint": "viability at 24 h, 50 µM", "result": "13.6%"}
{"substance": "WLNALKKVWQGIHEAIKLIWNWVQ-NH2 [Pse-Anal4]", "experimental_endpoint": "viability at 24 h, 50 µM", "result": "15.3%"}
{"substance": "ALNALKKVSQGIHEAIKLIANHVQ-NH2 [Pse-Anal7]", "experimental_endpoint": "viability at 24 h, 50 µM", "result": "100%"}
{"substance": "GLNALKKVSQGIHESIKLINNHVQ-NH2 [Pse-Anal6]", "experimental_endpoint": "viability at 24 h, 50 µM", "result": "100%"}

Now consider the entry below.
Kindly note the recorded viability at 24 h, 50 µM for WLNALKKVFQGIHEAIKLIWNHVQ-NH2 [Pse-Anal2] , which is 15.7%
